Cited source: ChEMBL document CHEMBL3988442

# System: Wolbachia pipientis
# Procedure details: Anti-Wolbachia Cell-Based Screen
# Assay type: functional
# Design: scale not given: in the data most compounds retested in dose-response had high values
# Condition label: 5 µM
Out of some 48,000 compounds screened, about 13,000 (27%) showed an effect of 50% or more. This is one part of the list.
Measured property: Percent Effect (%)
Field: numeric (%). Do not append units.

Please review the following examples before continuing.
[
  {
    "Compound": "COCCNC(=O)C1CN(Cc2cccc(C)n2)Cc2ccnn2C1.O=C(O)C(F)(F)F.O=C(O)C(F)(F)F (configuration not stated)",
    "Experimental result": 6.488
  },
  {
    "Compound": "CCN1CCc2cc(-c3cncn3CCNC3CCS(=O)(=O)C3)ccc21.Cl (configuration not stated)",
    "Experimental result": 103
  }
]

Reported Percent Effect for N#Cc1ccnc(N2CCN(C(=O)NC3CCS(=O)(=O)C3)CC2)c1 (configuration not stated) : what is it?
5.841

If you can, please state the reported Percent Effect value of CC(C)NC(=O)C1CN(Cc2cccs2)Cc2ccnn2C1 (configuration not stated) .
-1.449

Which Percent Effect is reported for this compound? `Cc1ccc(CNC2(Cc3cc(-c4ccccc4)on3)COC2)o1`
-15.57

Field request: Percent Effect | item: Cl.O=S1(=O)CCC(NCCn2cncc2-c2ccc3c(c2)CCCO3)C1 (configuration not stated)
81.24
